Molecular target: HsPDF (Homo sapiens, UniProt Q9HBH1)
Sequence (Q9HBH1 40-243): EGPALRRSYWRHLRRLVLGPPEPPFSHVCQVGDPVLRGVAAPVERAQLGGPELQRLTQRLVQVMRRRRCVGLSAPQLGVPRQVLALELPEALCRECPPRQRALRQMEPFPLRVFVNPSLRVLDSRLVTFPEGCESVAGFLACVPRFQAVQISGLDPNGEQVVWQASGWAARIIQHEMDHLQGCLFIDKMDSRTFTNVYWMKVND
Assay: HsPDF inhibition, potency and selectivity profiling
Assay type: biochemical
Conditions: read-out: HsPDF (%I)
property name: inhibition at 100 µM

Recorded inhibition at 100 µM, per entry:
COc1cc(C(=O)c2coc3c2C(=O)C(=O)C(Br)=C3Br)cc(OC)c1OC [Compd 27]	≥ 100%
O=C1C(=O)c2c(C(=O)c3ccccc3)coc2C(Cl)=C1Cl [Compd 5]	≥ 100%
COc1ccc(C(=O)c2coc3c2C(=O)C(=O)C(Cl)=C3Cl)cc1OC [Compd 23]	≥ 100%
COc1ccc(C(=O)c2coc3c2C(=O)C(=O)C=C3Cl)cc1 [Compd 19]	≥ 100%
O=C1C=Cc2occ(C(=O)c3ccccc3)c2C1=O [Compd 16]	≥ 100%
COc1cc(C(=O)c2coc3c2C(=O)C(=O)C(Cl)=C3Cl)cc(OC)c1OC [Compd 24]	≥ 100%
COc1ccc(C(=O)c2coc3c2C(=O)C(=O)C(Br)=C3Br)cc1OC [Compd 26]	≥ 100%
COc1ccc(C(=O)c2coc3c2C(=O)C(=O)C(Br)=C3Br)cc1 [Compd 25]	≥ 100%

(Q) Under HsPDF (Homo sapiens, UniProt Q9HBH1): inhibition at 100 µM value of COc1ccc(C(=O)c2coc3c2C(=O)C(=O)C=C3Br)cc1 [Compd 21] ?
(A) ≥ 100%

---

Tested on: Y79
Assay: cytotoxicity profile, Y79
Assay type: cell-based
Details: Homo sapiens, Y79, read-out: Cytotoxicity IC50, Y79
IC50 values, listed per item

O=C1C(=O)c2c(C(=O)c3ccccc3)coc2C(Cl)=C1Cl	≥ 100 µM

Below: the item to evaluate.
(Q) Given the compound COc1ccc(C(=O)c2coc3c2C(=O)C(=O)C(Br)=C3Br)cc1OC , what is its reported IC50?
(A) ≥ 100 µM
